target: Pantothenate synthetase (Mycobacterium tuberculosis (strain ATCC 25618 / H37Rv)) (UniProt P9WIL5); assay: Coupled enzyme confirmation of inhibitors against recombinant Mtb PanC (AID 375); conditions: coupled enzyme assay; at 10 µM, stronger effect = higher value;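 note: 0% = full reaction with vehicle and 100% = no enzyme background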
Sequence (P9WIL5 whole entry, looked up): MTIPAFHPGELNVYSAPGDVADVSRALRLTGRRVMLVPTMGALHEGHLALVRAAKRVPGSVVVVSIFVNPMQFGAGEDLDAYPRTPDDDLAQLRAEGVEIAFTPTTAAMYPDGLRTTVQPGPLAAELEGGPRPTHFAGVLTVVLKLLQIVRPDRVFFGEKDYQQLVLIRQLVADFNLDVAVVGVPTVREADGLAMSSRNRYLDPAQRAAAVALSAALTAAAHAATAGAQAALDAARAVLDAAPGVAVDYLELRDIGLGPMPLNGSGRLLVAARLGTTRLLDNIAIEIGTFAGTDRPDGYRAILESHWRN
ATTRIBUTE MEASURED: inhibition (%)
Numbers only, in %.

Past entries and their recorded results:
[[record]]
compound = "COCCn1c(SCC(=O)Nc2cccc(OC)c2)nnc1-c1ccc(Cl)cc1"
recorded_result = 3

[[record]]
compound = "O=C(Nc1ccon1)c1cccc(S(=O)(=O)N2CCCC2)c1"
recorded_result = 2

[[record]]
compound = "O=C(Cc1cccs1)NCc1ccc(F)cc1"
recorded_result = 0

[[record]]
compound = "COc1ccc(OC)c(C2/C(=C(\\O)c3ccc4c(c3)OCCO4)C(=O)C(=O)N2CCCN(C)C)c1 (stereo unspecified)"
recorded_result = 0


Required: inhibition, one value per compound below.
1. CCCC(=O)N(Cc1cc2ccccc2[nH]c1=O)c1ccccc1OC
2. COc1cc(S(=O)(=O)n2nnc3ccccc32)c(OC)cc1Cl
3. CCOC(=O)c1sc(NC(=O)c2c(C)nn(Cc3ccccc3)c2C)cc1C

1: 2; 2: 3; 3: 0

* * *

molecular target: Pantothenate synthetase (Mycobacterium tuberculosis (strain ATCC 25618 / H37Rv)) (UniProt P9WIL5); assay: Coupled enzyme confirmation of inhibitors against recombinant Mtb PanC (AID 375); details: coupled enzyme assay; at 10 µM, stronger effect = higher value;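 note: 0% = full reaction with vehicle and 100% = no enzyme background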
Record form. Attribute: inhibition. Fill in for each entry.
Answers are plain numbers, in %.

Past entries and their recorded results:
[[record]]
smiles_input = "CC(C)Cn1c2c(c(O)c(C(=O)Nc3ncccc3O)c1=O)CCCC2"
recorded_result = 0

[[record]]
smiles_input = "CC(=O)O[C@@]12CO[C@@H]1C[C@H](O)[C@@]1(C)C(=O)[C@H](O)C3=C(C)[C@@H](OC(=O)[C@H](O)[C@@H](NC(=O)OC(C)(C)C)c4ccccc4)C[C@](O)([C@@H](OC(=O)c4ccccc4)[C@H]21)C3(C)C"
recorded_result = 0

[[record]]
smiles_input = "Cn1c(=O)cc(OCCCC(=O)Nc2ccc3c(c2)OCCO3)c2ccccc21"
recorded_result = 1

[[record]]
smiles_input = "Cc1ccccc1Cn1c(=O)c2c(nc3n2CCCN3Cc2ccccc2)n(C)c1=O"
recorded_result = 0


The record that follows has no inhibition shown yet.
Reported inhibition for CCC1(c2ccccc2)C(=O)NCNC1=O was 7

* * *

molecular target: Pantothenate synthetase (Mycobacterium tuberculosis (strain ATCC 25618 / H37Rv)) (UniProt P9WIL5); assay: Coupled enzyme confirmation of inhibitors against recombinant Mtb PanC (AID 375); settings: coupled enzyme assay; at 10 µM, stronger effect = higher value;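 note: 0% = full reaction with vehicle and 100% = no enzyme background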
ATTRIBUTE MEASURED: inhibition (%)
Answers are plain numbers, in %.

Past entries and their recorded results:
[[record]]
molecule = "CCc1nnc(NC(=O)c2ccc(S(=O)(=O)N(CC(C)C)CC(C)C)cc2)o1"
recorded_result = 0

[[record]]
molecule = "COCCCN(Cc1ccccn1)S(=O)(=O)Cc1ccccc1"
recorded_result = 0

[[record]]
molecule = "CCOC(=O)c1[nH]c2ccc(OC)cc2c1NC(=O)CCN1CCC(C)CC1"
recorded_result = 0

[[record]]
molecule = "CCN(CC)c1ccc(CNc2ccc(Br)cn2)cc1"
recorded_result = 0

[[record]]
molecule = "Nc1nnc(SCc2cc3c(cc2Cl)OCO3)s1"
recorded_result = 7


Required: inhibition, one value per molecule below.
1. CCOc1cc(N2CCOCC2)c(OCC)cc1NC(=O)CSc1cccc[n+]1[O-]
2. C=CCn1c(SCC(=O)NCC2CCCO2)nc2scc(-c3ccco3)c2c1=O (stereo unspecified)
3. CCOc1cc(-c2nc3ccccn3c2NCC2CCCO2)ccc1O (stereo unspecified)
4. O=C(Nc1ccc2c(c1)OCCO2)C1CCCN1S(=O)(=O)c1cccc2cccnc12 (stereo unspecified)
5. CCOc1ccc(CN2CCN(c3cc(C)nc4c5c(C)cc(C)nc5nn34)CC2)cc1
6. CCN1CCN(c2nc3c(c(=O)[nH]c(=O)n3C)n2CCSc2nc3ccccc3s2)CC1

[3, 5, 0, 0, 0, 3]
